Data provenance: PubChem BioAssay (NCATS)

Tested on: CP329
Assay: qHTS profiling for inhibitors of Plasmodium falciparum proliferation (AID 504749);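 note: 0% = DMSO vehicle and full inhibition = artemisinin control; nearly all actives have a fitted effect of over 60% in size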
Conditions: P. falciparum in erythrocytes, SYBR Green DNA, 72 h; series mostly up to 28.7 µM
Records with an inconclusive call do not appear. The source made the active and inactive calls. Calls come from the whole dose curve; as a rule, active = well fitted inhibition curve with a large enough effect; inconclusive = small, poorly fitted or top-dose-only effect; inactive = flat fitted curve, though single readings scatter.
Would you mind answering with one of these outcomes? class 1 = active, class 0 = inactive

C[C@H]1O[C@@H](O[C@H]2[C@@H](O)C[C@H](O[C@H]3[C@@H](O)C[C@H](O[C@H]4CC[C@@]5(C)[C@H](CC[C@@H]6[C@@H]5C[C@@H](O)[C@]5(C)[C@@H](C7=CC(=O)OC7)CC[C@]65O)C4)O[C@@H]3C)O[C@@H]2C)C[C@H](O)[C@@H]1O = class 0

Q: // outcome(item) with item = `O=C(O)CCCC/C=C(\c1ccccc1)c1cccnc1`
Ans: class 0

Q: What do we get for O=S(=O)(O)CC(S)CS (configuration not stated) ?
Ans: class 0
